target: Ephrin type-A receptor 1 (Homo sapiens) (UniProt P21709); details: at 10 µM
Sequence (P21709 whole entry): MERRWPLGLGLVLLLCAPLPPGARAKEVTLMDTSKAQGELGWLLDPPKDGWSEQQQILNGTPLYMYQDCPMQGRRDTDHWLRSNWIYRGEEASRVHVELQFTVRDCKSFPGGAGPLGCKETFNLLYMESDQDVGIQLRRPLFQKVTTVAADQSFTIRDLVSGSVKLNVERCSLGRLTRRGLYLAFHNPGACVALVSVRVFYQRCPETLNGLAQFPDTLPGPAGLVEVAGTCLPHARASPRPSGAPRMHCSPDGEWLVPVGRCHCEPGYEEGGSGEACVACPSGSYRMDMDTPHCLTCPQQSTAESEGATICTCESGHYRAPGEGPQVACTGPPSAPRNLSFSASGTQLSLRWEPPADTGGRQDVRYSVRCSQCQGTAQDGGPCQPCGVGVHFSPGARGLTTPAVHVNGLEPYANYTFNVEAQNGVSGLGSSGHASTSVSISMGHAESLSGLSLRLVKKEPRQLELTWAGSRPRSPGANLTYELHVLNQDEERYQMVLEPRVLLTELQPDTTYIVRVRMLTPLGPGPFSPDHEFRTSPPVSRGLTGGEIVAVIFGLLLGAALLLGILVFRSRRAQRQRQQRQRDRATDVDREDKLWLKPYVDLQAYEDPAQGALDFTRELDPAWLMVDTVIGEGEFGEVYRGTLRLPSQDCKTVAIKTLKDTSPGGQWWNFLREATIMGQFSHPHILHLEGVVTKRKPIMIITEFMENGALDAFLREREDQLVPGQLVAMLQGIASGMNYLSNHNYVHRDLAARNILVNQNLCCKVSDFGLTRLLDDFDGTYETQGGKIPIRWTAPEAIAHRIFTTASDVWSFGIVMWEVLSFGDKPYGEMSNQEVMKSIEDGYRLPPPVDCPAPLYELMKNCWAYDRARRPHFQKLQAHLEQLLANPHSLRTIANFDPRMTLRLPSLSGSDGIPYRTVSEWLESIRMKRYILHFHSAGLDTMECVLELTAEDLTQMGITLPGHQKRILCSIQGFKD
Provide the recorded residual activity for the entries that follow.
One number for each entry, in %.

{"Smiles representation": "c1ccc(-c2cnc(Nc3ccc(OCCN4CCCC4)cc3)s2)cc1", "Measure unit": "%", "residual activity": 60}
{"Smiles representation": "COc1cc2nccc(Oc3ccc(NC(=S)NC(=O)c4ccccc4C)cc3)c2cc1OC", "Measure unit": "%", "residual activity": 24}

Field: residual activity. Fill in for each record below.
1. Cn1sc(=O)n(Cc2ccccc2)c1=O
2. O=c1cc(N2CCOCC2)oc2c1ccc1ccccc12
3. CC(C)c1nn(-c2c(Cl)cccc2Cl)c2nc(Cc3ccc(OCCO)cc3)[nH]c(=O)c12

[93, 87, 73]

Requested read-out: residual activity. Entry: O=c1cc(N2CCNCC2)oc2c(-c3ccccc3)cccc12
100

* * *

Provide the recorded residual activity for the entries that follow.
molecular target: Serine/threonine-protein kinase SIK1 (Homo sapiens) (UniProt P57059); conditions: at 10 µM
Sequence (P57059 whole entry): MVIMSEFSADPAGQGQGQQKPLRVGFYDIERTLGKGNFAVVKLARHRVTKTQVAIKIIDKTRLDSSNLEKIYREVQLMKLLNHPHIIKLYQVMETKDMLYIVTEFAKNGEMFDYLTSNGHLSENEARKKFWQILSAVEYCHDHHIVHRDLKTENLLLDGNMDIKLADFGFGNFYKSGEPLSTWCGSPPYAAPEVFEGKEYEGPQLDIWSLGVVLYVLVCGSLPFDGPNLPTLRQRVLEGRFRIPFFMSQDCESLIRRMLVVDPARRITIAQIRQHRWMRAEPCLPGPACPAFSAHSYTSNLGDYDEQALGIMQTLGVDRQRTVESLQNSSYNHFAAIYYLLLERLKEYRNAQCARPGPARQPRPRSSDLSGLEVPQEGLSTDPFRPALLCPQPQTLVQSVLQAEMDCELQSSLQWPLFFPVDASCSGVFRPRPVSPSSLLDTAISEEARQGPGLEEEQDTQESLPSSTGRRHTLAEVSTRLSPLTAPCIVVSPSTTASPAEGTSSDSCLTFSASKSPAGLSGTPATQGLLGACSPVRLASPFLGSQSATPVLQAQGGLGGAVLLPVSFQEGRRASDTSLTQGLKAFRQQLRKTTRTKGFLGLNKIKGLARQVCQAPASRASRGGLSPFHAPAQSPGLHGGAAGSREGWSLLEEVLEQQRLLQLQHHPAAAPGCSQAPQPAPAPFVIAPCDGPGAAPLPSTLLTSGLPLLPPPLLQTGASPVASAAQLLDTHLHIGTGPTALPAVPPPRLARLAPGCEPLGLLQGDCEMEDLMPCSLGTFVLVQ
One number for each entry, in %.

Below are worked cases with known answers.
{"Smiles representation": "Nc1ncnc2[nH]nc(Nc3ccc(F)cc3)c12", "residual activity (%)": 6}
{"Smiles representation": "Nc1n[nH]c2nc3ccccc3nc12", "residual activity (%)": 72}
{"Smiles representation": "CCOC(=O)c1c(C)[nH]c(/C=C2\\C(=O)Nc3ccccc32)c1C", "residual activity (%)": 91}
{"Smiles representation": "O=C1Cc2c([nH]c3ccc([N+](=O)[O-])cc23)-c2ccccc2N1", "residual activity (%)": 68}
{"Smiles representation": "O=C1NC(=O)C(c2cn(CCCO)c3ncccc23)=C1c1cnccn1", "residual activity (%)": 84}
{"Smiles representation": "COc1ccc(COc2ccc(Cc3cnc(N)nc3N)cc2OC)cc1", "residual activity (%)": 111}

Field: residual activity. Fill in for each record below.
1. O=c1cc(N2CCOCC2)oc2c1ccc1ccccc12
2. COc1ccc(Cl)cc1NC(=O)Nc1cc(C)nc2ccccc12
3. CCCCc1c(-c2ccc(OC)cc2)[nH]c2nccnc12
4. CCN(CC)CCNC(=O)c1c(C)[nH]c(/C=C2\C(=O)Nc3ccc(Cl)cc32)c1C
5. O=C1NC(=O)C(c2cn(CCCn3ccnc3)c3ccccc23)=C1Nc1ccccc1

1. 93
2. 134
3. 78
4. 5
5. 36

* * *

target: Vascular endothelial growth factor receptor 1 (Homo sapiens) (UniProt P17948); settings: at 1 µM
Sequence (P17948 whole entry): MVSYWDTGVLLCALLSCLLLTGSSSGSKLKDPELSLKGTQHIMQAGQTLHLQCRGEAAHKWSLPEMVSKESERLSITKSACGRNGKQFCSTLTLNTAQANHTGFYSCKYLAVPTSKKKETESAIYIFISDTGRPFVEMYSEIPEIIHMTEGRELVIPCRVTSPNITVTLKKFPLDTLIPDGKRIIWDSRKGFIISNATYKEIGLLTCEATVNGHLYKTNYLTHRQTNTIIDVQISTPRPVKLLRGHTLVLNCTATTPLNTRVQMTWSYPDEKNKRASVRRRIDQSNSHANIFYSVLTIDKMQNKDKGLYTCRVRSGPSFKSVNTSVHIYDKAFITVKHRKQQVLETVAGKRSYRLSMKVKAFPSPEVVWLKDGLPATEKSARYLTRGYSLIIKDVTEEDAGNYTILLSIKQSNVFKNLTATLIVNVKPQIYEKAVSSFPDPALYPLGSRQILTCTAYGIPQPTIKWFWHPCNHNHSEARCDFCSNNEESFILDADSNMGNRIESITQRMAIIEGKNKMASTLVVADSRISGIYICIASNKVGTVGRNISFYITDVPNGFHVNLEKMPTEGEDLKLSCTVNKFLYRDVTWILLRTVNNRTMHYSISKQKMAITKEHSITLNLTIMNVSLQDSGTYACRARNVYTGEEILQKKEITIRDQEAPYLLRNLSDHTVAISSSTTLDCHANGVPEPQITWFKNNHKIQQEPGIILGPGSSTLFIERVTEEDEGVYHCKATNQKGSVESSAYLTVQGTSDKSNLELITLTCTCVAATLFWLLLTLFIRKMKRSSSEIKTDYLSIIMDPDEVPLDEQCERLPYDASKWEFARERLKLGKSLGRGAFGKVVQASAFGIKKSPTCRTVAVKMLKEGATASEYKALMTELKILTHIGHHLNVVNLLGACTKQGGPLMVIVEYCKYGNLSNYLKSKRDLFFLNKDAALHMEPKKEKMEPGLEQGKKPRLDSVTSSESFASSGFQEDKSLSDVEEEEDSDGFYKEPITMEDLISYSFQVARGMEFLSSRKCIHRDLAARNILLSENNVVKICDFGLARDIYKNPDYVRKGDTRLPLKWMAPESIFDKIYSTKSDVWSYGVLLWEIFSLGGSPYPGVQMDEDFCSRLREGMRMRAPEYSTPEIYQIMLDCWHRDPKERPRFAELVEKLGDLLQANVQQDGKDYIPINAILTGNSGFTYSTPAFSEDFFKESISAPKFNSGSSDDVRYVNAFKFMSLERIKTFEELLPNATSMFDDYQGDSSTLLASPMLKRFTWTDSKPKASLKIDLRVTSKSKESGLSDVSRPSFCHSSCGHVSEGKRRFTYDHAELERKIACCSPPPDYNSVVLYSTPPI
Classify by residual activity. Ranges: b0: < 50%; b1: ≥ 50% and < 90%; b2: ≥ 90%

The following compounds have reported results that may help.
{"Smiles representation": "O=C1Cc2c([nH]c3ccc(Br)cc23)-c2ccccc2N1", "Label class": "b1"}
{"Smiles representation": "O=C1C(Cl)=C(N2C(=O)CCC2=O)C(=O)c2ccccc21", "Label class": "b2"}
{"Smiles representation": "O=c1c(-c2ccc(F)cc2)c(-c2ccncc2)[nH]n1-c1ccc(Cl)cc1", "Label class": "b2"}
{"Smiles representation": "O=C(Nc1ccc(Cl)cc1)c1ccccc1NCc1ccncc1", "Label class": "b0"}
{"Smiles representation": "CCCCc1c(-c2ccc(OC)cc2)[nH]c2nccnc12", "Label class": "b0"}
{"Smiles representation": "COc1ccc(Cl)cc1NC(=O)Nc1cc(C)nc2ccccc12", "Label class": "b2"}

Hey, which category is O=C1NC(=O)C(c2c[nH]c3ccccc23)=C1c1c[nH]c2ccccc12 in, do you know?
b0

Another: O=C(c1ccccc1)c1ccc(N2CCOCC2)cc1O
b2

Another: O=C(c1cc2cc(O)ccc2[nH]1)c1cc2cc(O)ccc2[nH]1
b0

Another: Cc1cc(C)c(/C=C2\C(=O)Nc3ccccc32)[nH]1
b0

Another: NC(=O)c1ccc(-c2nc(-c3ccc4c(c3)OCCO4)c(-c3ccccn3)[nH]2)cc1
b1

Another: O=C1NC(=O)c2c1c1c3ccccc3[nH]c1n1cncc21
b0

Another: COc1cc2nccc(Oc3ccc(NC(=S)NC(=O)c4ccccc4C)cc3)c2cc1OC
b0

Another: Nc1ncnc2c1cnn2-c1ccccc1
b2

Another: CCCC(=O)Oc1ccc2[nH]c(C(=O)c3cc4ccccc4[nH]3)cc2c1
b1

* * *

biological target: Protein kinase C delta type (Homo sapiens) (UniProt Q05655); details: at 10 µM
Sequence (Q05655 whole entry, looked up): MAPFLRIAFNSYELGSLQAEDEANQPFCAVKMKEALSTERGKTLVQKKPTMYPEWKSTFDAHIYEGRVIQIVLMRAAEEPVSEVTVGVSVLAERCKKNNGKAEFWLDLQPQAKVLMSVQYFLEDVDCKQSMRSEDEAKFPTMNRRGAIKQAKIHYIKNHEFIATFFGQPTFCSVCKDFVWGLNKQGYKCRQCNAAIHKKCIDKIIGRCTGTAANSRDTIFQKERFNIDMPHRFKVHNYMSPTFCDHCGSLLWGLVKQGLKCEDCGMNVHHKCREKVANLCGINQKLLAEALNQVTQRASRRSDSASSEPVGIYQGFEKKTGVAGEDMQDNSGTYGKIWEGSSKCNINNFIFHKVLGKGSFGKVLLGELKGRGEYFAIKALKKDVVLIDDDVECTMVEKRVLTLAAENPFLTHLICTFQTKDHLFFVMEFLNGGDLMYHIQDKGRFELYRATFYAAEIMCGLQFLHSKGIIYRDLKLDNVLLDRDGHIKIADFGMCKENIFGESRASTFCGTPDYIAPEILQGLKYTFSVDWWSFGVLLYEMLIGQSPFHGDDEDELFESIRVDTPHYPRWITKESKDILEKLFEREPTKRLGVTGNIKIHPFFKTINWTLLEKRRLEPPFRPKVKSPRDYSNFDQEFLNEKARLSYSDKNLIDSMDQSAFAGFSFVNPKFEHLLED
Quantity kind: residual activity (%)
One number for each entry, in %.

Below are worked cases with known answers.
{"Smiles representation": "O=S(=O)(c1cccc2cnccc12)N1CCCNCC1", "residual activity, %": 32}
{"Smiles representation": "NC(=O)c1ccc(-c2nc(-c3ccc4c(c3)OCCO4)c(-c3ccccn3)[nH]2)cc1", "residual activity, %": 100}
{"Smiles representation": "O=C1NC(=O)C(c2cn(CCCO)c3ncccc23)=C1c1cnccn1", "residual activity, %": 91}
{"Smiles representation": "CCN(CC)CCNC(=O)c1c(C)[nH]c(/C=C2\\C(=O)Nc3ccc(Cl)cc32)c1C", "residual activity, %": 68}
{"Smiles representation": "NCCNc1ncc(C(N)=O)c(Nc2cccc(C(F)(F)F)c2)n1", "residual activity, %": 28}
{"Smiles representation": "Nc1ncnc2c1cnn2-c1ccccc1", "residual activity, %": 97}
{"Smiles representation": "Fc1ccc(-c2nc3n(c2-c2ccncc2)CCS3)cc1", "residual activity, %": 85}
{"Smiles representation": "O=C1C(Cl)=C(N2C(=O)CCC2=O)C(=O)c2ccccc21", "residual activity, %": 60}

Field: residual activity. Fill in for each record below.
1. CN(C)S(=O)(=O)c1ccc2c(c1)/C(=C/c1cc3c([nH]1)CCCC3)C(=O)N2
2. O=c1cc(N2CCOCC2)oc2c1ccc1ccccc12
3. CC(C)[C@H](CO)Nc1nc(Nc2cc(N)cc(Cl)c2)c2ncn(C(C)C)c2n1
4. O=C1Cc2c([nH]c3ccc(Br)cc23)-c2ccccc2N1
5. CCCCc1c(-c2ccc(O)cc2)[nH]c2nccnc12

[121, 98, 72, 93, 100]

* * *

biological target: RAF proto-oncogene serine/threonine-protein kinase (Homo sapiens) (UniProt P04049); conditions: at 10 µM
Sequence (P04049 whole entry): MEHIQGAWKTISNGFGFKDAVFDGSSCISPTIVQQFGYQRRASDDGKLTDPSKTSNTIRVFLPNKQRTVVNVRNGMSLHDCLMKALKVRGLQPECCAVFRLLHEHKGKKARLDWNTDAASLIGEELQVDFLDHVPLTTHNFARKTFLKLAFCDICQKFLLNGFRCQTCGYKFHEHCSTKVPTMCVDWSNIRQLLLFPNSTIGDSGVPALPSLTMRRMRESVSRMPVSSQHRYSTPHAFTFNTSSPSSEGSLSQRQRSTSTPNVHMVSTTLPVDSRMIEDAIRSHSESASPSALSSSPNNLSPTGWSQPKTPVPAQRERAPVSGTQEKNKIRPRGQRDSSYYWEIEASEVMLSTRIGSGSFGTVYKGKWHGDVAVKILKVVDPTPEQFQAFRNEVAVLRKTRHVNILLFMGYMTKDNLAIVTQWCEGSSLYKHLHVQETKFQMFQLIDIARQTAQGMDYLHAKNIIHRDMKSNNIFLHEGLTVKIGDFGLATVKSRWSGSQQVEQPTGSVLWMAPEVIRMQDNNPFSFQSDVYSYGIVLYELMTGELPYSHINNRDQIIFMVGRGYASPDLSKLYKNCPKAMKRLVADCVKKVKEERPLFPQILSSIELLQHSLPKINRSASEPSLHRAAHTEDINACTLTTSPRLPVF
Provide the recorded residual activity for the entries that follow.
Numbers only, in %.

Below are worked cases with known answers.
{"Molecule": "CSc1nc(-c2ccc(F)cc2)c(-c2ccnc(NC(C)c3ccccc3)c2)[nH]1 (configuration not stated)", "System under test": "RAF proto-oncogene serine/threonine-protein kinase (Homo sapiens) (UniProt P04049)", "residual activity [%]": 65}
{"Molecule": "CCN1/C(=C/C(C)=O)Sc2ccc(OC)cc21", "System under test": "RAF proto-oncogene serine/threonine-protein kinase (Homo sapiens) (UniProt P04049)", "residual activity [%]": 77}
{"Molecule": "CC(C)[C@H](CO)Nc1nc(Nc2cc(N)cc(Cl)c2)c2ncn(C(C)C)c2n1", "System under test": "RAF proto-oncogene serine/threonine-protein kinase (Homo sapiens) (UniProt P04049)", "residual activity [%]": 17}
{"Molecule": "O=C1NC(=O)C(c2cn(CCCO)c3ncccc23)=C1c1cnccn1", "System under test": "RAF proto-oncogene serine/threonine-protein kinase (Homo sapiens) (UniProt P04049)", "residual activity [%]": 78}
{"Molecule": "O=C(Nc1ccc(Cl)cc1)c1ccccc1NCc1ccncc1", "System under test": "RAF proto-oncogene serine/threonine-protein kinase (Homo sapiens) (UniProt P04049)", "residual activity [%]": 9}

Field: residual activity. Fill in for each record below.
1. O=C(c1cc2cc(O)ccc2[nH]1)c1cc2cc(O)ccc2[nH]1
2. CC(C)N(CCC(=O)c1ccc2ccccc2c1)Cc1ccccc1

1: 72; 2: 81

Field: residual activity. Fill in for each record below.
1. O=C1C(Cl)=C(N2C(=O)CCC2=O)C(=O)c2ccccc21
2. Nc1nc(Nc2ccc(S(N)(=O)=O)cc2)nn1C(=O)c1c(F)cccc1F
3. O=C1NC(=O)C(c2cn(CCCn3ccnc3)c3ccccc23)=C1Nc1ccccc1

1: 61; 2: 26; 3: 71

Field: residual activity. Fill in for each record below.
1. O=c1cc(N2CCNCC2)oc2c(-c3ccccc3)cccc12
2. COc1cc2ncnc(Nc3cccc(Cl)c3)c2cc1OC

1. 87
2. 72

* * *

molecular target: MAP kinase-interacting serine/threonine-protein kinase 2 (Homo sapiens); settings: at 10 µM
Label rule not met if residual activity falls below 90%; label rule met in every other case.

The following compounds have reported results that may help.
{"Compound": "CC(C)c1nn(-c2c(Cl)cccc2Cl)c2nc(Cc3ccc(OCCO)cc3)[nH]c(=O)c12", "Label class": "rule met"}
{"Compound": "O=C1NC(=O)C(c2cn(CCCO)c3ncccc23)=C1c1cnccn1", "Label class": "rule not met"}
{"Compound": "CSc1nc(-c2ccc(F)cc2)c(-c2ccnc(NC(C)c3ccccc3)c2)[nH]1 (stereo not drawn)", "Label class": "rule met"}

Given COc1cc2nccc(Oc3ccc(NC(=O)Nc4cc(C)on4)c(Cl)c3)c2cc1OC , state whether its residual activity is at least 90%.
rule not met

Another: Nc1nccc(-c2c(-c3ccc(F)cc3)ncn2C2CCNCC2)n1
rule not met

Another: O=C1C(Cl)=C(N2C(=O)CCC2=O)C(=O)c2ccccc21
rule met

Another: CC(C)N(CCC(=O)c1ccc2ccccc2c1)Cc1ccccc1
rule not met

Another: COc1cc2nccc(Oc3ccc(NC(=S)NC(=O)c4ccccc4C)cc3)c2cc1OC
rule met

Another: CCCCc1c(-c2ccc(O)cc2)[nH]c2nccnc12
rule not met
